log10 of koff listing for selected binders.
biological target: C3b (biotinylated, captured site-specifically on a streptavidin chip) (UniProt P01024); experiment: SPR (Biacore 3000), single-cycle kinetics, biotinylated C3b on streptavidin chip, peptide as analyte, 1:1 Langmuir fit
Bridge positions count the residues as written; N and C are the ends. Square brackets hold non-standard residues; d marks the D form. Ends that are not written are not given here. Trp(1-Me) = Cn1cc(C[C@H](N)C(=O)O)c2ccccc21; NMeI = CC[C@H](C)[C@H](NC)C(=O)O; Sar = CNCC(=O)O
MEASURED_QUANTITY: log10 of koff (log10 of the value in s⁻¹)

{"BINDER": "VICVWQDWGAHRCI (mVal (N-methyl-Val) at Xaa0; Trp(Me) at position 4; Sar at position 8; mIle at position 13; C-terminal -NH2; cyclic via Cys2-Cys12 disulfide (compstatin position numbering)) [Peptide 11: mVal-Ile-[Cys-Val-Trp(Me)-Gln-Asp-Trp-Sar-Ala-His-Arg-Cys]-mIle-NH2]", "log10 of koff": -2.46}
{"BINDER": "Ac-WCV[Trp(1-Me)]QDW[Sar]AHRC[NMeI]-NH2 (disulfide 2-12; SMILES CC[C@H](C)[C@@H](C(N)=O)N(C)C(=O)[C@@H]1CSSC[C@H](NC(=O)[C@H](Cc2c[nH]c3ccccc23)NC(C)=O)C(=O)N[C@@H](C(C)C)C(=O)N[C@@H](Cc2cn(C)c3ccccc23)C(=O)N[C@@H](CCC(N)=O)C(=O)N[C@@H](CC(=O)O)C(=O)N[C@@H](Cc2c[nH]c3ccccc23)C(=O)N(C)CC(=O)N[C@@H](C)C(=O)N[C@@H](Cc2c[nH]cn2)C(=O)N[C@@H](CCCNC(=N)N)C(=O)N1) [Peptide 19: Ac-Trp-[Cys-Val-Trp(Me)-Gln-Asp-Trp-Sar-Ala-His-Arg-Cys]-mIle-NH2]", "log10 of koff": -2.77}
{"BINDER": "Me-ICVWQDW[Sar]AHRC[NMeI]-NH2 (disulfide 2-12; not fully specified (residue 4); printed as Me-Ile-[Cys-Val-Trp(Me)-Gln-Asp-Trp-Sar-Ala-His-Arg-Cys]-mIle-NH2) [Peptide 1: Me-Ile-[Cys-Val-Trp(Me)-Gln-Asp-Trp-Sar-Ala-His-Arg-Cys]-mIle-NH2]", "log10 of koff": -1.61}
{"BINDER": "GICVWQDWGAHRCI (Sar (N-methyl-Gly) at Xaa0 (N-terminus); Trp(Me) at position 4; Sar at position 8; mIle at position 13; C-terminal -NH2; cyclic via Cys2-Cys12 disulfide (compstatin position numbering)) [Compstatin 30 (Cp30): Sar-Ile-[Cys-Val-Trp(Me)-Gln-Asp-Trp-Sar-Ala-His-Arg-Cys]-mIle-NH2]", "log10 of koff": -2.54}
{"BINDER": "TICV[Trp(1-Me)]QDW[Sar]AHRC[NMeI]-NH2 (disulfide 3-13; N-terminus assumed; SMILES CC[C@H](C)[C@H](NC(=O)[C@@H](N)[C@@H](C)O)C(=O)N[C@H]1CSSC[C@@H](C(=O)N(C)[C@H](C(N)=O)[C@@H](C)CC)NC(=O)[C@H](CCCNC(=N)N)NC(=O)[C@H](Cc2c[nH]cn2)NC(=O)[C@H](C)NC(=O)CN(C)C(=O)[C@H](Cc2c[nH]c3ccccc23)NC(=O)[C@H](CC(=O)O)NC(=O)[C@H](CCC(N)=O)NC(=O)[C@H](Cc2cn(C)c3ccccc23)NC(=O)[C@H](C(C)C)NC1=O) [Peptide 8: Thr-Ile-[Cys-Val-Trp(Me)-Gln-Asp-Trp-Sar-Ala-His-Arg-Cys]-mIle-NH2]", "log10 of koff": -2.51}
